# maps each entry to its growth inhibition
TEST_DETAILS: NCI Yeast Anticancer Drug Screen. Data for the mec2-1 strain (AID 157)
DETAILS: S. cerevisiae mec2-1 strain, at 3.7 µM, stronger effect = higher value
This is part of a sample that, as a whole, favours compounds with a hit. Of some 79,000 tested, about 15% had one in any assay.
QUANTITY: growth inhibition (%)

| COMPOUND | NUMERIC_RESULT |
| --- | --- |
| CCCCN(CCCC)CC(C(C)=O)C(c1ccccc1)c1c(O)c2ccccc2oc1=O (stereo not given) | 2 |
| OC(c1ccc(Br)cc1)C(Cl)(Cl)Cl (stereo not given) | -19 |
| C[C@]12CCC3[C@@H](CC[C@@H]4c5nonc5CC[C@]34C)C1CCC2=O (stereo not given in full) | 3 |
| O=C(O)CCCc1cc(I)c(N(CCCl)CCCl)c(I)c1 | -73 |
| CCOP(=O)(CC(C)P(=O)(OCC)OCC)OCC.C[CH2][Sn]([Cl])([Cl])[CH2]C (stereo not given) | 4 |
| CC1=C(CO)C2=C(C)C3(CC3)[C@@](C)(O)C(=O)C2=C1 | -1 |
| O=Cc1ccc(C(F)(F)F)cc1.[C-]#[O+].[C-]#[O+].[C-]#[O+].[Cr] | 2 |
| CCc1cccc(C(C)C)c1NC1=C([n+]2ccc(C)cc2)C(=O)c2ccccc2C1=O | -3 |
| CN(CCc1ccc(Br)cc1)CCN1CCCCC1 | 24 |
| COC(=O)c1c(C)ccc2c(O)c3c(cc12)C(=O)c1c2c(cc(O)c1C3=O)C1(C)OC(C)(O2)C(O)C(N(C)C)C1O (stereo not given) | 3 |
| O=S(=O)(O)c1ccc(Cl)cc1.[Cd] | 5 |
| CC1CN=C(Nc2ccccc2)S1 (stereo not given) | -67 |
| CCCN(CCC)c1c([N+](=O)[O-])cc(S(N)(=O)=O)cc1[N+](=O)[O-] | 0 |
| C=CC[N+]12CN3CN(CN(C3)C1)C2 | -24 |
| CN(C)CCSC1=Nc2ccc(Cl)cc2C(c2ccccc2Cl)=NC1 | -2 |

====

TEST_DETAILS: NCI Yeast Anticancer Drug Screen. Data for the sgs1 mgt1 strain (AID 161);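 further: 0% = growth of cultures given vehicle only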
DETAILS: S. cerevisiae sgs1 mgt1 strain, at 5.0 µM (retest, dose inferred, filed as 0.5), stronger effect = higher value
Compounds without any hit were thinned out: in the full panel of roughly 79,000, 15% have a hit.
# maps each entry to its growth inhibition
QUANTITY: growth inhibition (%)

| COMPOUND | QUANTITY | NUMERIC_RESULT |
| --- | --- | --- |
| O=[N+]([O-])O.[NH-]C1CCCCC1[NH-].[NH-]C1CCCCC1[NH-].[NH-]C1CCCCC1[NH-].[OH-].[OH-].[OH-].[Pt+4].[Pt+4].[Pt+4] (configuration not stated) | growth inhibition | 27 |
| CCC[CH2][Sn]([N]=C=S)([N]=C=S)[N]=C=S.O=P(c1ccccc1)(c1ccccc1)c1ccccc1.O=P(c1ccccc1)(c1ccccc1)c1ccccc1 | growth inhibition | -4 |
| COC1(OC)C(Cl)=C(Cl)C(Cl)=C1Cl | growth inhibition | -1 |
| COc1ccc(C(Cc2ccc(Cl)c(Cl)c2)NCCO)cc1 (configuration not stated) | growth inhibition | -35 |
| CC(=O)Nc1ccccc1[As](O[As](c1ccccc1)c1ccccc1NC(C)=O)c1ccccc1 (configuration not stated) | growth inhibition | 66 |
| C[n+]1[se]nc2cc(C(=O)c3ccccc3)ccc21 (tested in a mixture with another compound) | growth inhibition | 98 |
| O=C([O][Hg][CH2]C1CC(O)CC([CH2][Hg][O]C(=O)c2ccccc2)O1)c1ccccc1 (configuration not stated) | growth inhibition | 99 |
| [N-]=[N+]=NS(=O)(=O)c1cccc([N+](=O)[O-])c1 | growth inhibition | -34 |
| Cc1ccc2c[c]1[Hg][CH2]COS2(=O)=O | growth inhibition | 48 |
| CC(=O)Nc1ccc(/C=N/N=C(/N)N[N+](=O)[O-])cc1 | growth inhibition | -5 |
| O=P(O/C(=C\c1ccccc1)c1ccccc1)(c1ccccc1)c1ccccc1 | growth inhibition | 15 |
| N#Cc1ccccc1C(Cl)(Cl)Cl | growth inhibition | -8 |
| CCCCN(CCCC)CCc1ccc(OC(=O)c2ccc(N)cc2)cc1 | growth inhibition | 46 |
| O=[N+]([O-])c1ccc(O)c(Cl)c1 | growth inhibition | -4 |
| CC1(C)N([O-])[N+](=O)C1(C)Br (configuration not stated) | growth inhibition | 21 |
| CCOP(=S)(S)OCC.[Pd] | growth inhibition | 57 |
| CCC[N+](CCC)(CCC)CCC.N#CN=C([SH2+])[SH2+].N#CN=C([SH2+])[SH2+].[Pt+2] | growth inhibition | 4 |
| S=P(S)(Oc1ccccc1)Oc1ccccc1 | growth inhibition | 1 |
| CC[C@@]1(O)C(=O)OCc2c1cc1n(c2=O)Cc2cc3cc4c(cc3nc2-1)OCO4 | growth inhibition | 91 |
| CN(CCc1ccc(Br)cc1)CCN1CCCCC1 | growth inhibition | 30 |
| Cl[C](Cl)(Cl)[Hg][c]1ccccc1 | growth inhibition | 100 |
| N#CC(C#N)=Cc1ccc(C#N)cc1 | growth inhibition | -56 |
| C/C(=N\N=C(/[Se])N1CC2CCC(CC2)C1)c1ccccn1 | growth inhibition | 53 |
| C[CH2][Sn]([Cl])([CH2]C)[O][Sn]([CH2]C)([CH2]C)[O][Sn]([Cl])([CH2]C)[CH2]C | growth inhibition | -17 |
| CC(=O)O[C@H]1CC[C@H]2[C@@H]3CC[C@H]4CC(=O)CC[C@@H]4[C@H]3CC[C@]12C | growth inhibition | -2 |
| CC(CN1CCCCCCC1)C(C#N)(c1ccccc1)c1ccccc1 (configuration not stated) | growth inhibition | 19 |
| C/C=C(\C)C(=O)OC1C(C)=C2C(C1OC(=O)CCCCC)C(C)(OC(C)=O)CC(OC(=O)CCC)C1(O)C2OC(=O)C1(C)O (configuration not stated) | growth inhibition | 20 |
| O=C1C=CC(=O)N1c1cccc2ccccc12 (tested in a mixture with another compound) | growth inhibition | 0 |
| C/C(=N\N)C(CN1CCCCC1)C(c1ccccc1)c1c(O)c2ccccc2oc1=O (configuration not stated) | growth inhibition | 3 |
| CC(=O)[O-].CC(=O)[O-].O=C(N/N=C/c1cc(Cl)cc(Cl)c1[OH2+])c1ccncc1.[Mn+2] | growth inhibition | 40 |
| Nc1ccc(Cl)cc1C(=O)c1ccccc1 | growth inhibition | -19 |
| NC(N)=N/N=C1\C(=O)N(c2ccc(Cl)cc2)C(=O)C1C(=O)Nc1ccc(Cl)cc1 (configuration not stated) | growth inhibition | 5 |
| CC(C)(C)C1=CC(=C/C=C/c2cc(C(C)(C)C)[o+]c(C(C)(C)C)c2)C=C(C(C)(C)C)O1 | growth inhibition | 99 |
| ClCC[N+]12CC[N+](CCCl)(CC1)C2 | growth inhibition | 86 |
| CSc1ccc(NC(=O)C2c3[nH]c4ccccc4c3C3CCC(C(C)(C)C)CC3C2C(=O)O)cc1 (configuration not stated) | growth inhibition | -4 |
| O=C(CCl)Nc1cccc(Cl)c1 | growth inhibition | 1 |
| CC(=O)OC1CCC2(C)C(CCC3C4=CCC(C5=CC(=O)OC5)C4(C)CCC32)C1 (configuration not stated) | growth inhibition | 5 |
| [C-]#[O+].[C-]#[O+].[C-]#[O+].[Cl-].[Ru+2].c1ccc([PH+](CC[PH+](c2ccccc2)c2ccccc2)CC[PH+](c2ccccc2)c2ccccc2)cc1 | growth inhibition | 55 |
| O=[As]c1ccc([N+](=O)[O-])cc1 (configuration not stated) | growth inhibition | 39 |
| CCNC(C)(C)C(SS)c1ccc(Br)cc1 (configuration not stated) | growth inhibition | -3 |
| OC1CCCC[CH]1[Hg][Cl] (configuration not stated) | growth inhibition | 100 |
| CC1(C)N=C(N)N=C(N)N1c1cccc(N)c1.[Sn] | growth inhibition | 45 |

Origin of values: PubChem BioAssay (NCI)
